Recorded values, source patent EP0212404A1.

Tested on: Staph.aureus SG511
# key: entry, value: MIC
metric: MIC

query_smiles=C[C@@H](O)[C@H]1C(=O)N2C(C(=O)O)=C(c3ccc(F)cc3)S[C@H]12 test_value="0.19 µg/mL"
query_smiles=C[C@@H](O)[C@H]1C(=O)N2C(C(=O)O)=C(c3ccc(Cl)cc3)S[C@H]12 test_value="0.05 µg/mL"
query_smiles=C[C@@H](O)[C@H]1C(=O)N2C(C(=O)O)=C(c3ccccc3)S[C@H]12 test_value="0.1 µg/mL"
